target: Plasminogen (Homo sapiens, UniProt P00747); assay: Inhibition of plasmin (unknown origin) using H-D-Val-Leu-Lys-pNA as substrate
Sequence (P00747 97-580 limits assumed): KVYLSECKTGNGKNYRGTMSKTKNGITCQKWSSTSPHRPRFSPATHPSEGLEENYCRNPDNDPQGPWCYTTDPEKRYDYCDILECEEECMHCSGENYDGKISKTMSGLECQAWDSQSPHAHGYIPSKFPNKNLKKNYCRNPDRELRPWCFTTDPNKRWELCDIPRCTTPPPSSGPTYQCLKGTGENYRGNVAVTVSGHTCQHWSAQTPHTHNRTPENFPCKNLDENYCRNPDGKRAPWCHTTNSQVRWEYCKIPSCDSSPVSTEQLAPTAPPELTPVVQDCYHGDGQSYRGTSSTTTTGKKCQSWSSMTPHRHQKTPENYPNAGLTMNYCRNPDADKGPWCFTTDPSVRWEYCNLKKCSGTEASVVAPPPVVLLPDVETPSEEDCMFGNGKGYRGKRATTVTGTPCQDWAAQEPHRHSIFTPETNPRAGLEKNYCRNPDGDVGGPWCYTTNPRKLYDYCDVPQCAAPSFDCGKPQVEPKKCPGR
Sequence (P00747 581-810 limits assumed): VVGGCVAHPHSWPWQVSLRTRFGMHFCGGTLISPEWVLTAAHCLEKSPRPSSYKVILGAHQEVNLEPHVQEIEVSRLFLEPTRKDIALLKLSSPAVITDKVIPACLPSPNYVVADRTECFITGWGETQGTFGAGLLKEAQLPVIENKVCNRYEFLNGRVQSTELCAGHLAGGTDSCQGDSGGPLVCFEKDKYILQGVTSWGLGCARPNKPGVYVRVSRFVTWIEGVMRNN
pIC50 values for the compounds below.
# reply with the number alone; pIC50 is -log10 of concentration in mol/L

# chemical-string, target-or-test-system, pIC50
rows = [
    ("CCCCCCCCNC(=O)[C@H](Cc1ccc(OCc2cccc(OCc3ccncc3)c2)cc1)NC(=O)[C@H]1CC[C@H](CN)CC1", "Plasminogen (Homo sapiens, UniProt P00747)", 6.01),
]

Query string: What measured pIC50 is associated with CCCCCCCCNC(=O)[C@H](Cc1ccc(OCc2ccc(C(F)(F)F)cc2)cc1)NC(=O)[C@H]1CC[C@H](CN)CC1 on Plasminogen (Homo sapiens, UniProt P00747)?
Result string: 6.02

Query string: What measured pIC50 is associated with CCCCCCCCNC(=O)[C@H](Cc1ccc(OCc2ccccc2)cc1)NC(=O)[C@H]1CC[C@H](CN)CC1 on Plasminogen (Homo sapiens, UniProt P00747)?
Result string: 5.77

Query string: What measured pIC50 is associated with CCCCCCCCNC(=O)[C@H](Cc1ccc(OCc2cccc(C(=O)O)c2)cc1)NC(=O)[C@H]1CC[C@H](CN)CC1 on Plasminogen (Homo sapiens, UniProt P00747)?
Result string: 6.28

###

biological target: Trypsin (Homo sapiens, UniProt P07477+P07478+P35030); assay: Inhibition of trypsin (unknown origin) using H-D-Phe-Pip-Arg-pNA as substrate; type: protein assay
IC50 values for the compounds below.
Returns: string containing the number followed by the unit.

Here's what some known entries look like.
# chemical-string, target-or-test-system, IC50
measured = [
    ("CCCCCCCCNC(=O)[C@H](Cc1ccc(OCc2cccc3cccnc23)cc1)NC(=O)[C@H]1CC[C@H](CN)CC1", "Trypsin (Homo sapiens, UniProt P07477+P07478+P35030)", "0.93 µM"),
    ("CCCCCCCCNC(=O)[C@H](Cc1ccc(OCc2ccccc2C(F)(F)F)cc1)NC(=O)[C@H]1CC[C@H](CN)CC1", "Trypsin (Homo sapiens, UniProt P07477+P07478+P35030)", "4.6 µM"),
    ("CCCCCCCCNC(=O)[C@H](Cc1ccc(OCc2cccc3ccccc23)cc1)NC(=O)[C@H]1CC[C@H](CN)CC1", "Trypsin (Homo sapiens, UniProt P07477+P07478+P35030)", "2.7 µM"),
]

Kindly consider the entry below.
Query string: // returns reported IC50 for input CCCCCCCCNC(=O)[C@H](Cc1ccc(OCc2ccc(C(F)(F)F)cc2)cc1)NC(=O)[C@H]1CC[C@H](CN)CC1
Result string: 6.9 µM

###

IC50 values for the compounds below.
molecular target: Trypsin (Homo sapiens, UniProt P07477+P07478+P35030); assay: Inhibition of trypsin (unknown origin) using H-D-Phe-Pip-Arg-pNA as substrate; assay type: protein assay
Your answer is read as µM, so omit the unit and give the number.

# chemical-string, property, value-measured
rows = [
    ("CCCCCCCCNC(=O)[C@H](Cc1ccc(OCc2cccc(-c3ccccc3)c2)cc1)NC(=O)[C@H]1CC[C@H](CN)CC1", "IC50", 6.7),
    ("CCCCCCCCNC(=O)[C@H](Cc1ccc(OCc2cccc(C(F)(F)F)c2)cc1)NC(=O)[C@H]1CC[C@H](CN)CC1", "IC50", 2.5),
    ("CCCCCCCCNC(=O)[C@H](Cc1ccc(OCc2cccc(OCc3ccncc3)c2)cc1)NC(=O)[C@H]1CC[C@H](CN)CC1", "IC50", 1.3),
]

Query string: What measured IC50 is associated with CCCCCCCCNC(=O)[C@H](Cc1ccc(OCc2ccc(C(=O)OCC)cc2)cc1)NC(=O)[C@H]1CC[C@H](CN)CC1 on Trypsin (Homo sapiens, UniProt P07477+P07478+P35030)?
Result string: 6.1

Query string: What measured IC50 is associated with CCCCCCCCNC(=O)[C@H](Cc1ccc(O)cc1)NC(=O)[C@H]1CC[C@H](CN)CC1 on Trypsin (Homo sapiens, UniProt P07477+P07478+P35030)?
Result string: 1

Query string: What measured IC50 is associated with CCCCCCCCNC(=O)[C@H](Cc1ccc(OCc2cccc(C(=O)OCC)c2)cc1)NC(=O)[C@H]1CC[C@H](CN)CC1 on Trypsin (Homo sapiens, UniProt P07477+P07478+P35030)?
Result string: 2.7

Query string: What measured IC50 is associated with CCCCCCCCNC(=O)[C@H](Cc1ccc(OCc2ccc3ccccc3c2)cc1)NC(=O)[C@H]1CC[C@H](CN)CC1 on Trypsin (Homo sapiens, UniProt P07477+P07478+P35030)?
Result string: 4.4

Query string: What measured IC50 is associated with CCCCCCCCNC(=O)[C@H](Cc1ccc(OCc2ccc(C(=O)O)cc2)cc1)NC(=O)[C@H]1CC[C@H](CN)CC1 on Trypsin (Homo sapiens, UniProt P07477+P07478+P35030)?
Result string: 4.7

Query string: What measured IC50 is associated with CCCCCCCCNC(=O)[C@H](Cc1ccc(OCc2ccccc2C(=O)OC)cc1)NC(=O)[C@H]1CC[C@H](CN)CC1 on Trypsin (Homo sapiens, UniProt P07477+P07478+P35030)?
Result string: 4.8

Query string: What measured IC50 is associated with CCCCCCCCNC(=O)[C@H](Cc1ccc(OCc2ccccc2)cc1)NC(=O)[C@H]1CC[C@H](CN)CC1 on Trypsin (Homo sapiens, UniProt P07477+P07478+P35030)?
Result string: 2.2

Query string: What measured IC50 is associated with CCCCCCCCNC(=O)[C@H](Cc1ccc(OCc2cccc([N+](=O)[O-])c2)cc1)NC(=O)[C@H]1CC[C@H](CN)CC1 on Trypsin (Homo sapiens, UniProt P07477+P07478+P35030)?
Result string: 2.1

Query string: What measured IC50 is associated with CCCCCCCCNC(=O)[C@H](Cc1ccc(OCc2ccncc2)cc1)NC(=O)[C@H]1CC[C@H](CN)CC1 on Trypsin (Homo sapiens, UniProt P07477+P07478+P35030)?
Result string: 1.1

Query string: What measured IC50 is associated with CCCCCCCCNC(=O)[C@H](Cc1ccc(OC(C)(C)C)cc1)NC(=O)[C@H]1CC[C@H](CN)CC1 on Trypsin (Homo sapiens, UniProt P07477+P07478+P35030)?
Result string: 0.38

Query string: What measured IC50 is associated with CCCCCCCCNC(=O)[C@H](Cc1ccc(OCc2cccc(C(=O)O)c2)cc1)NC(=O)[C@H]1CC[C@H](CN)CC1 on Trypsin (Homo sapiens, UniProt P07477+P07478+P35030)?
Result string: 2

Query string: What measured IC50 is associated with CCCCCCCCNC(=O)[C@H](Cc1ccc(OCc2cccc(N)c2)cc1)NC(=O)[C@H]1CC[C@H](CN)CC1 on Trypsin (Homo sapiens, UniProt P07477+P07478+P35030)?
Result string: 0.86

Query string: What measured IC50 is associated with CCCCCCCCNC(=O)[C@H](Cc1ccc(OCc2ccc3ccccc3n2)cc1)NC(=O)[C@H]1CC[C@H](CN)CC1 on Trypsin (Homo sapiens, UniProt P07477+P07478+P35030)?
Result string: 1.4

###

pIC50 values for the molecules below.
target: Plasminogen (Homo sapiens, UniProt P00747); test: Inhibition of plasmin (unknown origin)
# reply with the number alone; pIC50 is -log10 of concentration in mol/L

# chemical-string, target-or-test-system, property, value-measured
records = [
    ("CC[C@@H](C)[C@@H](N)C(=O)N[C@@H](Cc1ccc(OCc2ccncc2)cc1)C(=O)N[C@H](C#N)CCCCN", "Plasminogen (Homo sapiens, UniProt P00747)", "pIC50", 4.96),
]

Query string: // returns reported pIC50 for input CC[C@@H](C)[C@@H](N)C(=O)N[C@@H](Cc1ccc(OCc2cccc(OCc3ccncc3)c2)cc1)C(=O)N[C@H](C#N)CCCCN
Result string: 5.11
